Please respond with reported growth AUC for every item in the list.
System: Bacteroides caccae
Assay: growth AUC relative to DMSO control (median of replicates) (fraction); higher = more growth (less inhibition), active = hit call of the paper
Details: 20 µM; 24 h
Answers are plain numbers.

INSERT INTO measurements (molecular_string, recorded_metric, experimental_result) VALUES
  ('C=CC(N)=O', 'growth AUC', 0.985),
  ('Nc1cccc(Cl)c1Cl', 'growth AUC', 1.04),
  ('COP(=O)(OC)SCn1c(=O)oc2cc(Cl)cnc21', 'growth AUC', 1.02),
  ('Cc1cc(C)nc(NC(=O)NS(=O)(=O)c2ccccc2C(=O)OC2COC2)n1', 'growth AUC', 0.952),
  ('O=P(Oc1ccccc1)(Oc1ccccc1)Oc1ccccc1', 'growth AUC', 0.898);

Turning to the following compound.
Q. Data request, read-out growth AUC, for CCNc1nc(Cl)nc(NC(C)(C)C#N)n1
A. 1.02

###

Tested on: Lactobacillus gasseri
Assay: growth AUC relative to DMSO control (median of replicates) (fraction); higher = more growth (less inhibition), active = hit call of the paper
Details: 20 µM; 24 h
Recorded metric: growth AUC
Numbers only.

INSERT INTO measurements (molecule, experimental_result) VALUES
  ('CC(C)C1(C)N=C(c2ncccc2C(=O)O)NC1=O (stereo not given)', 0.946),
  ('COP(=S)(OC)Oc1cc(Cl)c(Br)cc1Cl', 1.06),
  ('Oc1ccc(Cc2ccc(O)cc2)cc1', 1.04),
  ('CCOC(=O)CC(SP(=S)(OC)OC)C(=O)OCC (stereo not given)', 0.917);

Would you mind listing growth AUC for each of the following molecules?
1. O=C(O)COc1ccc(Cl)cc1Cl
2. CCNc1nc(Cl)nc(NC(C)(C)C)n1
3. Cc1ccc(-c2c(Cl)nc(C#N)n2S(=O)(=O)N(C)C)cc1
4. Nc1cc(Cl)cc(C(=O)O)c1Cl
5. CCC(C)c1ccccc1OC(=O)NC (stereo not given)
6. Cc1cc(Cl)ccc1N=CN(C)C.Cl
7. Cl.NC1=NCCN1Cc1ccc(Cl)nc1

A.
1. 1.08
2. 0.947
3. 1
4. 1.13
5. 1.07
6. 1.01
7. 1.02

Would you mind listing growth AUC for each of the following molecules?
1. Clc1ccccc1Cl
2. CC(=O)CC(c1ccco1)c1c(O)c2ccccc2oc1=O (stereo not given)
3. CC(C)=NOCCOC(=O)[C@@H](C)Oc1ccc(Oc2cnc3cc(Cl)ccc3n2)cc1
4. CCCCN(CCCC)SN(C)C(=O)Oc1cccc2c1OC(C)(C)C2

A.
1. 0.948
2. 1.03
3. 1.04
4. 0.884

Would you mind listing growth AUC for each of the following molecules?
1. FC(F)C(F)(F)OCC(Cn1cncn1)c1ccc(Cl)cc1Cl (stereo not given)
2. CCOP(=S)(OCC)Oc1cnccn1
3. ClC1=C(Cl)C2(Cl)C(CBr)CC1(Cl)C2(Cl)Cl (stereo not given)
4. O=C1c2ccccc2C(=O)N1SC(Cl)(Cl)Cl
5. c1ccc2c(c1)ccc1c3ccccc3sc21
6. CCSCCSP(=S)(OC)OC

A.
1: 0.912; 2: 0.993; 3: 0.858; 4: 1.01; 5: 0.974; 6: 1.06

Would you mind listing growth AUC for each of the following molecules?
1. OC(c1ccc(F)cc1)(c1cncnc1)c1ccccc1Cl (stereo not given)
2. CCCN(CCCl)c1c([N+](=O)[O-])cc(C(F)(F)F)cc1[N+](=O)[O-]
3. O=P(OCCCl)(OCCCl)OCCCl
4. CCc1cc(C)cc(CC)c1-c1c(OC(=O)C(C)(C)C)n2n(c1=O)CCOCC2

A.
1: 0.969; 2: 0.875; 3: 0.98; 4: 0.845

From: the supplement of paper PMC12669032
